tested on: Escherichia coli TOP10; test: shrunken log2 fold change of peptide-encoding DNA abundance (4.5 h post-induction vs induction); higher = less antimicrobial activity (less host growth inhibition); settings: time post-induction: 4.5 h; library: site-saturation at positions 5, 18, 19, 20
# binning rule on shrunken log2 fold change: A = under -0.2, B = from -0.2 up to 0.1, C = 0.1 and over

Hi, small favor: classify RRIRARPPRLPRPRPRPTLRPRP by its shrunken log2 fold change when you get a moment.
C

Hi, small favor: classify RRIRDRPPRLPRPRPRPVTLPRP by its shrunken log2 fold change when you get a moment.
A

Hi, small favor: classify RRIRERPPRLPRPRPRPCHGPRP by its shrunken log2 fold change when you get a moment.
A

Hi, small favor: classify RRIRRRPPRLPRPRPRPKHTPRP by its shrunken log2 fold change when you get a moment.
C

Hi, small favor: classify RRIRDRPPRLPRPRPRPENIPRP by its shrunken log2 fold change when you get a moment.
B

Hi, small favor: classify RRIRARPPRLPRPRPRPKDKPRP by its shrunken log2 fold change when you get a moment.
B

Hi, small favor: classify RRIRNRPPRLPRPRPRPNHHPRP by its shrunken log2 fold change when you get a moment.
A

Hi, small favor: classify RRIRIRPPRLPRPRPRPQSPPRP by its shrunken log2 fold change when you get a moment.
B

Hi, small favor: classify RRIRHRPPRLPRPRPRPQKGPRP by its shrunken log2 fold change when you get a moment.
B

Hi, small favor: classify RRIRPRPPRLPRPRPRPNWQPRP by its shrunken log2 fold change when you get a moment.
C

Hi, small favor: classify RRIRGRPPRLPRPRPRPACEPRP by its shrunken log2 fold change when you get a moment.
C

Hi, small favor: classify RRIRHRPPRLPRPRPRPAHLPRP by its shrunken log2 fold change when you get a moment.
B

Hi, small favor: classify RRIRVRPPRLPRPRPRPPGVPRP by its shrunken log2 fold change when you get a moment.
C

Hi, small favor: classify RRIRHRPPRLPRPRPRPIFSPRP by its shrunken log2 fold change when you get a moment.
B

Hi, small favor: classify RRIRERPPRLPRPRPRPNLMPRP by its shrunken log2 fold change when you get a moment.
A

Hi, small favor: classify RRIRVRPPRLPRPRPRPHGFPRP by its shrunken log2 fold change when you get a moment.
B

Hi, small favor: classify RRIRFRPPRLPRPRPRPREQPRP by its shrunken log2 fold change when you get a moment.
C

----------
test system: Escherichia coli TOP10; assay: shrunken log2 fold change of peptide-encoding DNA abundance (4.5 h post-induction vs induction); higher = less antimicrobial activity (less host growth inhibition); details: time post-induction: 4.5 h; library: site-saturation at positions 5, 18, 19, 20
readout: shrunken log2 fold change
Write the number on its own, no unit after it.

Answered examples (3):
RRIRFRPPRLPRPRPRPESDPRP; 0.17
RRIRCRPPRLPRPRPRPMPLPRP; -0.643
RRIRKRPPRLPRPRPRPMVRPRP; 0.00145

Fill in the blank: the reported shrunken log2 fold change of RRIRGRPPRLPRPRPRPRLVPRP is ____.
0.725

Fill in the blank: the reported shrunken log2 fold change of RRIRFRPPRLPRPRPRPSPKPRP is ____.
0.188

----------
test system: Escherichia coli TOP10; experiment: shrunken log2 fold change of peptide-encoding DNA abundance (4.5 h post-induction vs induction); higher = less antimicrobial activity (less host growth inhibition); conditions: time post-induction: 4.5 h; library: site-saturation at positions 5, 18, 19, 20;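 further: peptides expressed intracellularly from a pBAD plasmid library in pooled LB shake-flask culture, induced with 0.3% L-arabinose, DNA abundance read by NGS, three biological replicates, DESeq2 with apeglm shrinkage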
Each entry gets label 0 if its shrunken log2 fold change stays under -0.1, and label 1 if its shrunken log2 fold change is -0.1 or above.

Worked examples follow.
RRIRERPPRLPRPRPRPNRPPRP; label 0
RRIRCRPPRLPRPRPRPDMWPRP; label 1
RRIRARPPRLPRPRPRPSRDPRP; label 1
RRIRKRPPRLPRPRPRPPTWPRP; label 1
RRIRWRPPRLPRPRPRPFWRPRP; label 1

Moving on to the next sequence.
Please indicate if the recorded shrunken log2 fold change for RRIRLRPPRLPRPRPRPFGNPRP meets or exceeds -0.1.
label 0
